# viability, T/C listing for each entry below
tested on: NCI-H226 complex tumor spheroids, viability; assay: Anticancer human tumor NCI-H226 cell line growth inhibition; conditions: second compound 0.0003 µM; first compound 0.1 µM; active compounds read low;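 note: spheroids exposed to compound for 7 days; 100% = DMSO vehicle control viability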
Report as a plain number; the unit % is understood.

CC(C)n1c(=O)n(C)c2cnc3cc(F)c(-c4ccc(OCCCN5CCCCC5)nc4)cc3c21 + COc1cc2c(cc1O)CCNC21CSC2c3c(OC(C)=O)c(C)c4c(c3C(COC1=O)N1C(O)C3Cc5cc(C)c(OC)c(O)c5C(C21)N3C)OCO4: 125
COc1ccc([C@@H](O)c2cc(-c3ncnc4cc(N5CCOCC5)ccc34)c(F)cc2Cl)nn1 + COc1cc2c(cc1O)CCNC21CSC2c3c(OC(C)=O)c(C)c4c(c3C(COC1=O)N1C(O)C3Cc5cc(C)c(OC)c(O)c5C(C21)N3C)OCO4: 130
CC1COCCN1c1cc(-c2ccnn2C)c2ccnc(-c3ccn[nH]3)c2n1 (stereo unspecified) + COc1cc2c(cc1O)CCNC21CSC2c3c(OC(C)=O)c(C)c4c(c3C(COC1=O)N1C(O)C3Cc5cc(C)c(OC)c(O)c5C(C21)N3C)OCO4: 108

Prompt line: For the compound COc1cc(C)[nH]c(=O)c1CN1CCc2c(Cl)cc(C(OC)C3COC3)c(Cl)c2C1=O (stereo unspecified) + COc1cc2c(cc1O)CCNC21CSC2c3c(OC(C)=O)c(C)c4c(c3C(COC1=O)N1C(O)C3Cc5cc(C)c(OC)c(O)c5C(C21)N3C)OCO4 , what viability, T/C is on record?
Response line: 133

Prompt line: Please give the measured viability, T/C for this compound: Cc1cc(C)c(CNC(=O)c2cc(-c3ccc(CN4CCOCC4)cc3)cc3c2cnn3C2CCCC2)c(=O)[nH]1 + COc1cc2c(cc1O)CCNC21CSC2c3c(OC(C)=O)c(C)c4c(c3C(COC1=O)N1C(O)C3Cc5cc(C)c(OC)c(O)c5C(C21)N3C)OCO4
Response line: 115

Prompt line: Fill blank: measured viability, T/C of the compound [2H]c1nc(C)nc([2H])c1-c1cc(NC[C@@H](C)c2cccc3c(C(=O)NC)ccnc23)ncn1 + COc1cc2c(cc1O)CCNC21CSC2c3c(OC(C)=O)c(C)c4c(c3C(COC1=O)N1C(O)C3Cc5cc(C)c(OC)c(O)c5C(C21)N3C)OCO4 is ____.
Response line: 110
